Test Summary: chemical genetic growth profiling, strain panel (AID 1159580);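 further: tested at 20 µM; growth read once vehicle control cultures reached saturation at 30 °C; 1 = growth at the plate median or of vehicle wells; lower values mean less growth of the strain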
Applied Conditions: S. cerevisiae deletion strains, growth OD, locus YLL041C, strain sdh2, hits give low values
Hit rate of the full screen: of about 5,500 compounds, about 2,000 (36%) were called active. Not shown: some 18% with an inconclusive outcome. Some of the results follow.
Listed next: entries and their corresponding normalized growth.
Lab note: write the figure by itself, no unit.

Check out these entries, answers already filled in.
{"Compound": "CN(C)C(=O)Nc1ccc(Cl)c(Cl)c1", "normalized growth": 0.994}
{"Compound": "C=C1C2CC[C@@]3(C)[C@H](c4ccoc4)OC(=O)C[C@]13O[C@H]1CC(O)C(C)(C)C(CC(=O)OC)[C@@]21C (some centres undefined)", "normalized growth": 0.971}
{"Compound": "CCC(=O)Nc1ccc(Cl)c(Cl)c1", "normalized growth": 0.996}

With those in mind, consider the next compound.
query: Consider the compound shown here: CN(CCC(N)CC(=O)N[C@H]1C=CC(n2ccc(N)nc2=O)O[C@@H]1C(=O)O)C(=N)N (some centres undefined) What is its recorded normalized growth?
result: 0.946

====

Test Summary: chemical genetic growth profiling, strain panel (AID 1159580);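 further: tested at 20 µM; growth read once vehicle control cultures reached saturation at 30 °C; 1 = growth at the plate median or of vehicle wells; lower values mean less growth of the strain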
Applied Conditions: S. cerevisiae deletion strains, growth OD, locus YLL026W
In all, about 5,500 compounds went through this assay and about 2,000 (36%) were called active. Not shown: some 18% with an inconclusive outcome. Rule as the data show it: active = normalized growth mostly below about 0.91 (no sharp cut-off); inconclusive = no clear call, values can overlap the other calls; inactive = mostly above about 0.92. This is one part of the list.
Pick one: Y = active, N = inactive

query: What is the recorded call for this molecule in the test? C[C@@H]1CC2C3C[C@H](F)C4=CC(=O)C=C[C@]4(C)[C@@]3(F)[C@@H](O)C[C@]2(C)[C@@]1(O)C(=O)COC(=O)C(C)(C)C (stereo not given in full)
result: N

query: What is the recorded call for this molecule in the test? O=c1cc(-c2ccc(O)cc2)oc2cc(O)ccc12
result: N

query: What is the recorded call for this molecule in the test? NC(=O)c1ncn(C2O[C@H](CO)[C@@H](O)[C@H]2O)c1N (stereo not given in full)
result: N

====

Test Summary: chemical genetic growth profiling, strain panel (AID 1159580);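 further: tested at 20 µM; growth read once vehicle control cultures reached saturation at 30 °C; 1 = growth at the plate median or of vehicle wells; lower values mean less growth of the strain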
Applied Conditions: S. cerevisiae deletion strains, growth OD, locus YLR320W, strain mms22, hits give low values
Among all 5,500 compounds or so, about 2,000 (36%) were called active. Inconclusive results (about 18%) are left out. The list shows a part of the results.
Entries whose normalized growth is below 1 take Criterion met; entries at or above 1 take Criterion not met.

query: Quick check: does NCC(CC(=O)O)c1ccc(Cl)cc1 (stereo unspecified) have normalized growth under 1?
result: Criterion met

query: Quick check: does N[C@H](Cc1ccccc1)C(=O)O have normalized growth under 1?
result: Criterion met

query: Quick check: does CN1CCN(C2=Nc3ccccc3Oc3ccc(Cl)cc32)CC1 have normalized growth under 1?
result: Criterion not met

query: Quick check: does CC(CCC(=O)O)[C@H]1CCC2C3CC[C@@H]4C[C@H](O)CC[C@]4(C)C3CC[C@@]21C (stereo partly specified) have normalized growth under 1?
result: Criterion met

query: Quick check: does COC(=O)CCCOc1ccc(Cl)cc1Cl have normalized growth under 1?
result: Criterion met

====

Test Summary: chemical genetic growth profiling, strain panel (AID 1159580);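 further: tested at 20 µM; growth read once vehicle control cultures reached saturation at 30 °C; 1 = growth at the plate median or of vehicle wells; lower values mean less growth of the strain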
Applied Conditions: S. cerevisiae deletion strains, growth OD, locus YDL101C, strain DUN1, hits give low values
The campaign covered roughly 5,500 compounds. About 2,000 (36%) were called active. Another 18% or so got no clear call; they are omitted. The list shows a part of the results.
Observation Type: normalized growth
Lab note: write the figure by itself, no unit.

{"Molecule": "C[C@@H]1CC2C3C[C@H](F)C4=CC(=O)C=C[C@]4(C)[C@@]3(F)[C@@H](O)C[C@]2(C)[C@@]1(O)C(=O)COC(=O)C(C)(C)C (some centres not stated)", "normalized growth": 1.01}

query: Consider the molecule shown here: CC(CCC(=O)O)[C@H]1CCC2C3CC[C@@H]4CCCC[C@]4(C)C3CC[C@@]21C (some centres not stated) What is its recorded normalized growth?
result: 1.01

query: Consider the molecule shown here: N[C@H](Cc1cc(I)c(Oc2ccc(O)c(I)c2)c(I)c1)C(=O)O What is its recorded normalized growth?
result: 0.998

query: Consider the molecule shown here: C[C@@H](N)[C@@H](O)c1ccccc1 What is its recorded normalized growth?
result: 0.983

query: Consider the molecule shown here: Cc1cc(NS(=O)(=O)c2ccc(NS(=O)(=O)c3ccc(Cl)cc3)cc2)no1 What is its recorded normalized growth?
result: 1

query: Consider the molecule shown here: CNCCCN1c2ccccc2CCc2ccccc21 What is its recorded normalized growth?
result: 1

query: Consider the molecule shown here: O=c1c2cc(NS(=O)(=O)c3ccc(Cl)cc3)ccc2oc2ncccc12 What is its recorded normalized growth?
result: 0.988

query: Consider the molecule shown here: N[C@@H](Cc1cc(I)c(Oc2ccc(O)c(I)c2)c(I)c1)C(=O)O What is its recorded normalized growth?
result: 1.02

query: Consider the molecule shown here: O=C(Nc1ccccc1)NC1CCCC1 What is its recorded normalized growth?
result: 0.989

query: Consider the molecule shown here: CC(=O)Nc1ccccc1 What is its recorded normalized growth?
result: 0.98

query: Consider the molecule shown here: C[C@H](N)[C@H](O)c1cccc(O)c1 What is its recorded normalized growth?
result: 0.997

query: Consider the molecule shown here: NC(Cc1ccc(F)cc1)C(=O)O (configuration not stated) What is its recorded normalized growth?
result: 1.01
